System: human red blood cells (hRBC)
Experiment: Hemolysis of human red blood cells
Format: cell-based
Settings: red cells of human, 1 h, 100
Experimental: Lyophilized peptides were weighed on a Microbalance (Mettler MT5) and dissolved in sterile water to a final concentration of 1 mg/ml. Stock solutions were kept at +4° C., light protected. The peptides were tested for their hemolytic activity against human red blood cells (hRBC). […] A value of 0% and 100% cell lyses, respectively, was determined by incubation of hRBC in the presence of PBS containing 0.001% acetic acid and 2.5% Triton X-100 in H2O, respectively. […]
Where a SMILES comes first, the peptide text is derived from it. [ ]: non-standard residue; d: D form. Tle = CC(C)(C)[C@H](N)C(=O)O; dDab = NCC[C@@H](N)C(=O)O; Orn = NCCC[C@H](N)C(=O)O; Dab = NCC[C@H](N)C(=O)O; Dap = NC[C@H](N)C(=O)O
This section presents compounds with their documented Hemolysis at 100 μg/ml values.
Provide the reading as a plain figure in %.

Q. Please report the recorded Hemolysis at 100 μg/ml for CC(C)C[C@@H]1NC(=O)[C@@H]2CCCN2C(=O)[C@H]2CCCN2C(=O)[C@H](CO)NC(=O)[C@H](CCN)NC(=O)[C@H](C(C)(C)C)NC(=O)[C@H](CCN)NC(=O)[C@H](Cc2c[nH]c3ccccc23)NC(=O)[C@H](CCN)NC(=O)[C@@H](CCN)NC(=O)[C@H](CCCN)NC(=O)[C@H](CCN)NC(=O)[C@H](Cc2ccc(O)cc2)NC(=O)[C@H]([C@@H](C)O)NC1=O [compound 115] (cyclo(LTY[Dab][Orn][dDab][Dab]W[Dab][Tle][Dab]S[dP]P)) .
A. 0

Continuing:
Q. Please report the recorded Hemolysis at 100 μg/ml for CC(C)C[C@@H]1NC(=O)[C@@H]2CCCN2C(=O)[C@H]2CCCN2C(=O)[C@H](CO)NC(=O)[C@H](C)NC(=O)[C@H](C(C)(C)C)NC(=O)[C@H](CCN)NC(=O)[C@H](Cc2c[nH]c3ccccc23)NC(=O)[C@H](CCN)NC(=O)[C@@H](CCN)NC(=O)[C@H](CCCN)NC(=O)[C@H](CCN)NC(=O)[C@H](Cc2ccc(O)cc2)NC(=O)[C@H](CN)NC1=O [compound 145] (cyclo(L[Dap]Y[Dab][Orn][dDab][Dab]W[Dab][Tle]AS[dP]P)) .
A. 0

Q. And what about the compound CC(C)C[C@@H]1NC(=O)[C@@H]2CCCN2C(=O)[C@H]2CCCN2C(=O)[C@H](CO)NC(=O)[C@H](CO)NC(=O)[C@H](C(C)(C)C)NC(=O)[C@H](CCN)NC(=O)[C@H](Cc2c[nH]c3ccccc23)NC(=O)[C@H](CCN)NC(=O)[C@@H](CCN)NC(=O)[C@H](CCCN)NC(=O)[C@H](CCN)NC(=O)[C@H](Cc2ccc(O)cc2)NC(=O)[C@H](C)NC1=O [compound 130] (cyclo(LAY[Dab][Orn][dDab][Dab]W[Dab][Tle]SS[dP]P)) ?
A. 0.2

* * *

Tested on: human red blood cells (hRBC)
Assay: Hemolysis of human red blood cells
Assay type: cell-based
Conditions: red cells of human, 1 h, 100
Where a SMILES comes first, the peptide text is derived from it. [ ]: non-standard residue; d: D form. Cha = N[C@@H](CC1CCCCC1)C(=O)O; dDab = NCC[C@@H](N)C(=O)O; Orn = NCCC[C@H](N)C(=O)O; Dab = NCC[C@H](N)C(=O)O; Nva = CCC[C@H](N)C(=O)O
Measurement label: Hemolysis at 100 μg/ml (%)
Provide the reading as a plain figure in %.

Example compounds with recorded Hemolysis at 100 μg/ml:
Q. Please state recorded Hemolysis at 100 μg/ml (tested on human red blood cells (hRBC)) of CC(C)[C@@H]1NC(=O)[C@H](CCN)NC(=O)[C@H](Cc2c[nH]c3ccccc23)NC(=O)[C@H](CCN)NC(=O)[C@@H](CCN)NC(=O)[C@H](CCCN)NC(=O)[C@H](CCN)NC(=O)[C@H](Cc2ccc(O)cc2)NC(=O)[C@H](CO)NC(=O)[C@H](Cc2c[nH]c3ccccc23)NC(=O)[C@@H]2CCCN2C(=O)[C@H]2CCCN2C(=O)[C@H](CO)NC(=O)[C@H](C)NC1=O [compound 72] (cyclo(WSY[Dab][Orn][dDab][Dab]W[Dab]VAS[dP]P))
A. 0

Q. And what about the compound CC(C)C[C@@H]1NC(=O)[C@@H]2CCCN2C(=O)[C@H]2CCCN2C(=O)[C@H](CO)NC(=O)[C@H](C)NC(=O)[C@H](C(C)C)NC(=O)[C@H](CCN)NC(=O)[C@H](Cc2c[nH]c3ccccc23)NC(=O)[C@H](CCN)NC(=O)[C@@H](CCN)NC(=O)[C@H](CCCN)NC(=O)[C@H](CCN)NC(=O)[C@H](Cc2ccc(O)cc2)NC(=O)[C@H](CO)NC1=O [compound 35] (cyclo(LSY[Dab][Orn][dDab][Dab]W[Dab]VAS[dP]P)) ?
A. 1

Switching to the query record.
Q. Please state recorded Hemolysis at 100 μg/ml (tested on human red blood cells (hRBC)) of CCC[C@@H]1NC(=O)[C@@H]2CCCN2C(=O)[C@H]2CCCN2C(=O)[C@H](CO)NC(=O)[C@H](C)NC(=O)[C@H](CC2CCCCC2)NC(=O)[C@H](CCN)NC(=O)[C@H](Cc2c[nH]c3ccccc23)NC(=O)[C@H](CCN)NC(=O)[C@@H](CCN)NC(=O)[C@H](CCCN)NC(=O)[C@H](CCN)NC(=O)[C@H](Cc2ccc(O)cc2)NC(=O)[C@H](CO)NC1=O [compound 93] (cyclo([Nva]SY[Dab][Orn][dDab][Dab]W[Dab][Cha]AS[dP]P))
A. 5

* * *

Tested on: human red blood cells (hRBC)
Experiment: Hemolysis of human red blood cells
Format: cell-based
Details: red cells of human, 1 h, 100
Where a SMILES comes first, the peptide text is derived from it. [ ]: non-standard residue; d: D form. Chg = N[C@H](C(=O)O)C1CCCCC1; Tle = CC(C)(C)[C@H](N)C(=O)O; dDab = NCC[C@@H](N)C(=O)O; Orn = NCCC[C@H](N)C(=O)O; Dab = NCC[C@H](N)C(=O)O; Nva = CCC[C@H](N)C(=O)O
Measurement label: Hemolysis at 100 μg/ml (%)
Provide the reading as a plain figure in %.

Q. Please report the recorded Hemolysis at 100 μg/ml for CCC[C@@H]1NC(=O)[C@@H]2CCCN2C(=O)[C@H]2CCCN2C(=O)[C@H](CO)NC(=O)[C@H](C)NC(=O)[C@H](C2CCCCC2)NC(=O)[C@H](CCN)NC(=O)[C@H](Cc2c[nH]c3ccccc23)NC(=O)[C@H](CCN)NC(=O)[C@@H](CCN)NC(=O)[C@H](CCCN)NC(=O)[C@H](CCN)NC(=O)[C@H](C(C)(C)C)NC(=O)[C@H](CO)NC1=O [compound 138] (cyclo([Nva]S[Tle][Dab][Orn][dDab][Dab]W[Dab][Chg]AS[dP]P)) .
A. 1

Switching to the query record.
Q. Please report the recorded Hemolysis at 100 μg/ml for C[C@@H]1NC(=O)[C@H](C(C)(C)C)NC(=O)[C@H](CCN)NC(=O)[C@H](Cc2c[nH]c3ccccc23)NC(=O)[C@H](CCN)NC(=O)[C@@H](CCN)NC(=O)[C@H](CCCN)NC(=O)[C@H](CCN)NC(=O)[C@H](C(C)(C)C)NC(=O)[C@H](CO)NC(=O)[C@H](Cc2c[nH]c3ccccc23)NC(=O)[C@@H]2CCCN2C(=O)[C@H]2CCCN2C(=O)[C@H](CO)NC1=O [compound 68] (cyclo(WS[Tle][Dab][Orn][dDab][Dab]W[Dab][Tle]AS[dP]P)) .
A. 0

* * *

System: human red blood cells (hRBC)
Assay: Hemolysis of human red blood cells
Type: cell-based
Conditions: red cells of human, 1 h, 100
Where a SMILES comes first, the peptide text is derived from it. [ ]: non-standard residue; d: D form. Chg = N[C@H](C(=O)O)C1CCCCC1; dDab = NCC[C@@H](N)C(=O)O; Orn = NCCC[C@H](N)C(=O)O; Dab = NCC[C@H](N)C(=O)O
Measurement label: Hemolysis at 100 μg/ml (%)
Provide the reading as a plain figure in %.

Q. Please report the recorded Hemolysis at 100 μg/ml for C[C@@H]1NC(=O)[C@H](Cc2c[nH]c3ccccc23)NC(=O)[C@@H]2CCCN2C(=O)[C@H]2CCCN2C(=O)[C@H](CO)NC(=O)[C@H](C)NC(=O)[C@H](C2CCCCC2)NC(=O)[C@H](CCN)NC(=O)[C@H](Cc2c[nH]c3ccccc23)NC(=O)[C@H](CCN)NC(=O)[C@@H](CCN)NC(=O)[C@H](CCCN)NC(=O)[C@H](CCN)NC(=O)[C@H](Cc2ccc(O)cc2)NC1=O [compound 77] (cyclo(WAY[Dab][Orn][dDab][Dab]W[Dab][Chg]AS[dP]P)) .
A. 1
